Values from the C3SDB collision cross section collection

The molecules listed here are annotated with their collision cross section (N2).
Settings: [M-H]-; instrument: DT; single field, calibrated with ESI Low Concentration Tuning Mix (Agilent)

{"MOLECULE": "Cn1cncc1C[C@H](NC(=O)CCN)C(=O)O", "collision cross section (N2), Å²": 154.8}
{"MOLECULE": "CC(=O)NC(Cc1c[nH]c2ccccc12)C(=O)O (centres undefined)", "collision cross section (N2), Å²": 158.3}
{"MOLECULE": "NC(N)=NCCC[C@H](N)C(=O)O", "collision cross section (N2), Å²": 136.4}
{"MOLECULE": "Nc1ncnc2c1ncn2[C@@H]1O[C@H](COP(=O)(O)O)[C@@H](OP(=O)(O)O)[C@H]1O [ADENOSINE 3',5'-DIPHOSPHATE]", "collision cross section (N2), Å²": 184.3}
{"MOLECULE": "Cc1ccc(O)c(O)c1", "collision cross section (N2), Å²": 121}
{"MOLECULE": "O=C(O)c1ccnc2ccccc12 [4-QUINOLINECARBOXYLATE]", "collision cross section (N2), Å²": 134.3}
{"MOLECULE": "CC(=O)N[C@@H](CO)C(=O)O", "collision cross section (N2), Å²": 127.2}
{"MOLECULE": "OC[C@H]1O[C@@H](O[C@H]2[C@H](O)[C@@H](O)[C@H](O)O[C@@H]2CO)[C@H](O)[C@@H](O)[C@@H]1O", "collision cross section (N2), Å²": 179.7}
{"MOLECULE": "CSCC[C@H](N)C(=O)O", "collision cross section (N2), Å²": 132}
{"MOLECULE": "O=C(O)[C@H]1O[C@H](O)[C@H](O)[C@@H](O)[C@H]1O [GALACTURONATE]", "collision cross section (N2), Å²": 131.3}
{"MOLECULE": "CC(=O)N[C@@H]1[C@@H](O)[C@H](O)[C@@H](CO)O[C@H]1O", "collision cross section (N2), Å²": 152.5}
{"MOLECULE": "O=C(O)Cc1cc(O)ccc1O [HOMOGENTISATE]", "collision cross section (N2), Å²": 132.4}
{"MOLECULE": "N[C@@H](Cc1ccc(O)cc1)C(=O)O", "collision cross section (N2), Å²": 143.8}
{"MOLECULE": "O=P(O)(O)OC[C@H]1OC(O)[C@@H](O)[C@@H](O)[C@@H]1O (some centres undefined) [MANNOSE 6-PHOSPHATE]", "collision cross section (N2), Å²": 146.2}
{"MOLECULE": "NC(=O)[C@@H](N)Cc1c[nH]c2ccccc12 [L-TRYPTOPHANAMIDE]", "collision cross section (N2), Å²": 143.3}
{"MOLECULE": "Cc1cc2nc[nH]c2cc1C", "collision cross section (N2), Å²": 129.9}
{"MOLECULE": "CC(=O)NCCc1c[nH]c2ccc(O)cc12", "collision cross section (N2), Å²": 150.5}
{"MOLECULE": "NCCS(=O)O", "collision cross section (N2), Å²": 132.6}
{"MOLECULE": "C[C@H]1O[C@@H](n2cnc3c(N)ncnc32)[C@H](O)[C@@H]1O", "collision cross section (N2), Å²": 154.8}

---

Details: [M+H]+; instrument: TW; calibrated with polyalanine and drug standards
OBSERVATION TYPE: collision cross section (N2) (Å²)

{"COMPOUND": "CCCCC1=NC2(CCCC2)C(=O)N1Cc1ccc(-c2ccccc2-c2nn[nH]n2)cc1", "OBSERVATION TYPE": "collision cross section (N2)", "RESULT UNIT": "Å²", "VALUE MEASURED": 201.2}
{"COMPOUND": "CC(C)(C)NC(=O)[C@H]1CC[C@H]2[C@@H]3CC[C@H]4NC(=O)C=C[C@]4(C)[C@H]3CC[C@]12C [FINASTERIDE]", "OBSERVATION TYPE": "collision cross section (N2)", "RESULT UNIT": "Å²", "VALUE MEASURED": 200}
{"COMPOUND": "O=C(CCCN1CC=C(n2c(=O)[nH]c3ccccc32)CC1)c1ccc(F)cc1", "OBSERVATION TYPE": "collision cross section (N2)", "RESULT UNIT": "Å²", "VALUE MEASURED": 195}
{"COMPOUND": "CCCCC1(COC(=O)CCC(=O)O)C(=O)N(c2ccccc2)N(c2ccccc2)C1=O", "OBSERVATION TYPE": "collision cross section (N2)", "RESULT UNIT": "Å²", "VALUE MEASURED": 199.3}

---

Settings: [M+Na]+; instrument: DT; single field, calibrated with Agilent tune mix (Agilent)

{"MOLECULE": "CC(=O)N[C@@H](Cc1ccc(O)cc1)C(=O)O [N-Acetyl-L-tyrosine]", "collision cross section (N2) (Å²)": 154.5}
{"MOLECULE": "NCc1[nH]cc(CCC(=O)O)c1CC(=O)O [Porphobilinogen]", "collision cross section (N2) (Å²)": 148.1}
{"MOLECULE": "CCCCCCCCCCCCC/C=C/[C@@H](O)[C@H](CO)NC(=O)CCCCCCCCCCCCCCCCC [N-Stearoylsphingosine]", "collision cross section (N2) (Å²)": 256.4}
{"MOLECULE": "NC(=O)CCCCC1CCSS1 (centres undefined) [Lipoamide]", "collision cross section (N2) (Å²)": 150.5}

---

The compounds listed here are annotated with their collision cross section (N2).
Settings: [M+H]+; instrument: TW; calibrated with polyalanine and drug standards
Counter-ions that a name gives are not always drawn.

{"COMPOUND": "COc1ccc2c(c1)O[C@@H]1COc3cc(OC)c(OC)cc3[C@@H]1C2=O [MUNDOSERONE]", "RESULT UNIT": "Å²", "collision cross section (N2)": 175.1}
{"COMPOUND": "CC1(C)O[C@@H]2C[C@H]3[C@@H]4C[C@H](F)C5=CC(=O)C=C[C@]5(C)[C@H]4[C@@H](O)C[C@]3(C)[C@]2(C(=O)CO)O1 [FLUNISOLIDE]", "RESULT UNIT": "Å²", "collision cross section (N2)": 199.8}
{"COMPOUND": "COc1cc([C@@H]2c3cc4c(cc3[C@H](O)[C@H]3COC(=O)[C@H]23)OCO4)cc(OC)c1OC [PODOFILOX]", "RESULT UNIT": "Å²", "collision cross section (N2)": 189.6}
{"COMPOUND": "COc1ccccc1OCCNCC(O)COc1cccc2[nH]c3ccccc3c12 (stereo unspecified) [CARVEDILOL]", "RESULT UNIT": "Å²", "collision cross section (N2)": 189.1}
{"COMPOUND": "CCCCC(=O)O[C@]1(C(=O)CO)[C@@H](C)C[C@H]2[C@@H]3CCC4=CC(=O)C=C[C@]4(C)[C@@]3(F)[C@@H](O)C[C@@]21C [BETAMETHASONE VALERATE]", "RESULT UNIT": "Å²", "collision cross section (N2)": 214}
{"COMPOUND": "CNCCCC1c2ccccc2C=Cc2ccccc21 [PROTRYPTYLINE HYDROCHLORIDE]", "RESULT UNIT": "Å²", "collision cross section (N2)": 162.8}
{"COMPOUND": "C=C[C@H]1CN2CC[C@H]1C[C@@H]2[C@@H](O)c1ccnc2ccccc12 [CINCHONINE]", "RESULT UNIT": "Å²", "collision cross section (N2)": 166.3}
{"COMPOUND": "COC(=O)Nc1nc2ccc(C(=O)c3cccs3)cc2[nH]1 [NOCODAZOLE]", "RESULT UNIT": "Å²", "collision cross section (N2)": 168.7}
{"COMPOUND": "COc1cc(NS(=O)(=O)c2ccc(N)cc2)nc(OC)n1 [SULFADIMETHOXINE]", "RESULT UNIT": "Å²", "collision cross section (N2)": 167.7}
{"COMPOUND": "COc1cc(S(C)=O)ccc1-c1nc2ncccc2[nH]1 (stereo unspecified) [SULMAZOLE]", "RESULT UNIT": "Å²", "collision cross section (N2)": 166.4}
{"COMPOUND": "CC[C@H](/C=C/[C@@H](C)[C@H]1CC[C@H]2[C@@H]3CCC4=CC(=O)CC[C@]4(C)[C@H]3CC[C@]12C)C(C)C [STIGMASTA-4,22-DIEN-3-ONE]", "RESULT UNIT": "Å²", "collision cross section (N2)": 218.5}
{"COMPOUND": "O=C(O)C1=CC(=C(c2ccc(O)c(C(=O)O)c2)c2ccc(O)c(C(=O)O)c2)C=CC1=O [AURIN TRICARBOXYLIC ACID]", "RESULT UNIT": "Å²", "collision cross section (N2)": 197.6}
{"COMPOUND": "C[C@H]1CC[C@@H](C(C)(C)O)CC2=C1CC[C@@H]2C [GUAIOL(-)]", "RESULT UNIT": "Å²", "collision cross section (N2)": 146.3}
{"COMPOUND": "C=C(C)[C@H]1CC=C(C(=O)O)CC1 [PERILLIC ACID (-)]", "RESULT UNIT": "Å²", "collision cross section (N2)": 124.9}
{"COMPOUND": "CC1=C(C(=O)O)N2C(=O)[C@@H](NC(=O)[C@H](N)c3ccccc3)[C@H]2SC1 [CEPHALEXIN]", "RESULT UNIT": "Å²", "collision cross section (N2)": 178.5}
{"COMPOUND": "CC[C@H]1OC(=O)[C@H](C)C(=O)[C@H](C)[C@@H](O[C@@H]2O[C@H](C)C[C@H](N(C)C)[C@H]2O)[C@](C)(OC)C[C@@H](C)C(=O)[C@H](C)[C@H]2N(CCCCn3cnc(-c4cccnc4)c3)C(=O)O[C@]12C [TELITHROMYCIN]", "RESULT UNIT": "Å²", "collision cross section (N2)": 269.7}
{"COMPOUND": "O=C1CC(c2ccc(O)cc2)Oc2cc(O)cc(O)c21 (stereo unspecified) [NARINGENIN]", "RESULT UNIT": "Å²", "collision cross section (N2)": 160.6}
{"COMPOUND": "CC(C)=CCc1c(O)cc2oc(C)cc(=O)c2c1O [PEUCENIN]", "RESULT UNIT": "Å²", "collision cross section (N2)": 154.2}
{"COMPOUND": "O=c1c(O)c(-c2ccccc2)oc2ccccc12 [3-HYDROXYFLAVONE]", "RESULT UNIT": "Å²", "collision cross section (N2)": 146.3}
{"COMPOUND": "O=c1c(O)c(-c2ccc(O)cc2O)oc2cc(O)cc(O)c12 [MORIN]", "RESULT UNIT": "Å²", "collision cross section (N2)": 162.7}
{"COMPOUND": "N=c1nc(N2CCCCC2)cc(N)n1O [MINOXIDIL]", "RESULT UNIT": "Å²", "collision cross section (N2)": 146.1}
{"COMPOUND": "COc1ccc2c(c1)OCC(Cc1ccc(OC)c(OC(C)=O)c1)C2=O (stereo unspecified) [DEOXYSAPPANONE B 7,3'-DIMETHYL ETHER ACETATE]", "RESULT UNIT": "Å²", "collision cross section (N2)": 177.9}
{"COMPOUND": "CN/C(=C\\[N+](=O)[O-])NCCSCc1csc(CN(C)C)n1 [NIZATIDINE]", "RESULT UNIT": "Å²", "collision cross section (N2)": 169.1}
{"COMPOUND": "O=c1cc(-c2ccccc2O)oc2cc(O)ccc12 [7,2'-DIHYDROXYFLAVONE]", "RESULT UNIT": "Å²", "collision cross section (N2)": 152.4}
{"COMPOUND": "O=C(O)c1cc2cc(F)ccc2[nH]1 [5-FLUOROINDOLE-2-CARBOXYLIC ACID]", "RESULT UNIT": "Å²", "collision cross section (N2)": 145.3}
{"COMPOUND": "Cc1nnc(NS(=O)(=O)c2ccc(N)cc2)s1 [SULFAMETHIZOLE]", "RESULT UNIT": "Å²", "collision cross section (N2)": 155.2}
